// provenance: patent US20230416248A1

Please provide measured IC50 for the entries that follow.
target: BRG-1 (Homo sapiens); construct: made in house; host or cells: High Five insect cells; test: ATPase catalytic activity of BRG-1, ADP-Glo in vitro biochemical assay; conditions: ADP-Glo ATPase assay, 30 nM BRG-1, 400 μM ATP; read-out: BRG1 IC50
Sequence (P51532 whole entry): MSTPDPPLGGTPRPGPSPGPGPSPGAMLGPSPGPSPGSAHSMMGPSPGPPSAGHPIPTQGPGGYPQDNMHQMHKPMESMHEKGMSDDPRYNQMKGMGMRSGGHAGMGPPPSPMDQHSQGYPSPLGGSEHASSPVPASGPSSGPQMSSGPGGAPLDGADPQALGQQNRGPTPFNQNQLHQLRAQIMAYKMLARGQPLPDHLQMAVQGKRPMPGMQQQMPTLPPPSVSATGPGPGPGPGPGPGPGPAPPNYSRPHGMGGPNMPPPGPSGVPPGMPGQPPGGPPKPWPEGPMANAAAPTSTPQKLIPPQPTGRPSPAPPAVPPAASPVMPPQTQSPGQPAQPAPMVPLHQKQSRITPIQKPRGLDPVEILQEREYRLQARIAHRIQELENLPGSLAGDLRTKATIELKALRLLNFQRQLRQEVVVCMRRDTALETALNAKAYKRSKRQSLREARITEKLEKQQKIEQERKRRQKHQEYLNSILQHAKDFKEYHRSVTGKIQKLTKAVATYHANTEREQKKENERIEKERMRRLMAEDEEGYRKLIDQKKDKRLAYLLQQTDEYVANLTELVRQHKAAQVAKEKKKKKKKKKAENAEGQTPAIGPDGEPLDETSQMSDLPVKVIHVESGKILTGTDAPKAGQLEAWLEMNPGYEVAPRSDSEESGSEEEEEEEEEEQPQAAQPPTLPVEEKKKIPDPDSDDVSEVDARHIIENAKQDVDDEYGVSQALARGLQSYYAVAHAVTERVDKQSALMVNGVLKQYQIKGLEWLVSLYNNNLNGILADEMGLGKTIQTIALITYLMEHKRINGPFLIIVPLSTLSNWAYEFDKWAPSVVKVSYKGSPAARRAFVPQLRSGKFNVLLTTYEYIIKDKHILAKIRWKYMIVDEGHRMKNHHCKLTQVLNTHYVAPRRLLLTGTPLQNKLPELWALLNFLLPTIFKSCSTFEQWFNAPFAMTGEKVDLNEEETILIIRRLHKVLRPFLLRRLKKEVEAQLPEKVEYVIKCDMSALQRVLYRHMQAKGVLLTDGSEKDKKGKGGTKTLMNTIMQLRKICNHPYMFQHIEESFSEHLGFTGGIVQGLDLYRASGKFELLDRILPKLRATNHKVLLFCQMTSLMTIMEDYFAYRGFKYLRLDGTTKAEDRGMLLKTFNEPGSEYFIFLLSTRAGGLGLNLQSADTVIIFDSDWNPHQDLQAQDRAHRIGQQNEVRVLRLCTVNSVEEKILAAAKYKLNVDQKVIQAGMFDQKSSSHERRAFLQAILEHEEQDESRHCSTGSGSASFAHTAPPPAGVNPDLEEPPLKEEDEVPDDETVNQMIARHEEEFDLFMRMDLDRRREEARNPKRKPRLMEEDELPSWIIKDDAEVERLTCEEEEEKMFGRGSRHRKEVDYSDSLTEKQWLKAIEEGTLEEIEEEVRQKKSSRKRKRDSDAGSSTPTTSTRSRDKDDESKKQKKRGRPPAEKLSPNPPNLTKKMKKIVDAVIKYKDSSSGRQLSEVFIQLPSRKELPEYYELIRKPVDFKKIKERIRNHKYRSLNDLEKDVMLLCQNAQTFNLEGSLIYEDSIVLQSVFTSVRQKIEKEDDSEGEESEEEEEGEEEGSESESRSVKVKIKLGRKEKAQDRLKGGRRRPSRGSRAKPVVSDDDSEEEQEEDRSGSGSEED
State the result as a value with its unit after it.

// query Which IC50 is listed for CC(C)(F)c1cncc(-c2ccc3cnc(CNC(=O)c4ccc5c(c4)S(=O)(=O)CCOC5)cc3n2)n1 ?
// result 2.62 µM

// query What about this compound? O=C(NCc1cc2nc(-c3cccc(C4(C(F)F)CC4)n3)ccc2cn1)c1ccc2c(c1)S(=O)(=O)CCOC2
// result 0.377 µM

// query What about this compound? Cc1cc(F)c2c(c1)OCCN2c1ccc2cnc(CNC(=O)c3ccc4c(c3)S(=O)(=O)CCOC4)cc2n1
// result 0.159 µM

// query What about this compound? CC1COCc2ccc(C(=O)NCc3cc4nc(-c5cccc(N6CCC6)n5)ccc4cn3)cc2S1(=O)=O (single isomer, unassigned) [Compound 199]
// result 2.41 µM
